Measured pIC50 of individual entries
Target: CaMKI (Homo sapiens, UniProt Q14012)
Sequence (Q14012 whole entry, species assumed): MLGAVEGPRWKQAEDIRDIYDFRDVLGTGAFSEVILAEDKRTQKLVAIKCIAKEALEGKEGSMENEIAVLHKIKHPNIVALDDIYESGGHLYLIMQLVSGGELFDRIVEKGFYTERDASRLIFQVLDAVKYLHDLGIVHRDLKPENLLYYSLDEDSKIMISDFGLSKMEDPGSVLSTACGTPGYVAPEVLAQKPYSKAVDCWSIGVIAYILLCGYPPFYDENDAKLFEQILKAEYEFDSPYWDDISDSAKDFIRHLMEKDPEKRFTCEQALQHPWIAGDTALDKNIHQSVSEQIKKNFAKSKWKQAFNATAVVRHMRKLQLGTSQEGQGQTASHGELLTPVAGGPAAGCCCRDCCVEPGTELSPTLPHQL
Experiment: CaMKI activity / inhibition
Format: biochemical
pIC50: −log10 of the molar value. Where no end group is shown, it is not given here.

**Q:** Provide one value: measured pIC50 of KRAPKLGQIGRVKAVVIED [CN19a2v]
**A:** ~4.74

**Q:** Provide one value: measured pIC50 of KRAPKLGQIGRQKAVDIED [CN19o]
**A:** ~4.42

**Q:** Provide one value: measured pIC50 of KRPPKLGQIGRSKRVVIED [CN19]
**A:** ~4.44

---

Tested on: CaMKII
Type: biochemical
Conditions: phosphorylation of syntide 2; read-out: IC50 of CaMKII inhibition
pIC50: −log10 of the molar value. Where no end group is shown, it is not given here.
measuredQuantity: pIC50

**Q:** Provide one value: measured pIC50 of KRPPKLGQIGRSKRVVIEDDR [CN21]
**A:** ~7.00

---

Molecular target: CaMKI (Homo sapiens, UniProt Q14012)
Test: CaMKI activity / inhibition
Assay type: biochemical
Text: For curve fit, the Hill coefficient was set as 1.
Where no end group is shown, it is not given here.

substance	effect on CaMKI activity
KRPPKLGQIGRSKRVVIED [CN19]	no significant effect
CN27: CaM-KIINtide, previously identified inhibitory region of CaM-KIIN, SEQ ID NO:17 (KRPPKLGQIGRSKRVVIEDDRIDDVLK; Derived from CaMKIIN) [reference compound]	no significant effect
KRPPKLGQIGRSKRVVIEDDR [CN21]	no significant effect

---

Target: calmodulin (CaM) (Homo sapiens)
Experiment: Binding to calmodulin (slot blot, blot overlay, TA-CaM competition with CBD)
pKd: −log10 of the molar value. Where no end group is shown, it is not given here.
measuredQuantity: pKd

**Q:** Provide one value: measured pKd of RQIKIWFQNRRMKWK [ant]
**A:** ~8.30

---

System: CaMKII
Format: biochemical
Settings: phosphorylation of syntide 2; read-out: IC50 of CaMKII inhibition
Where no end group is shown, it is not given here.
Measured IC50 of individual entries

>>> df
                      primarysequence  result
0  KRAPKLGQIGRQKAVVIED [CN19a2v V12Q]   ~1 nM

**Q:** Provide one value: measured IC50 of KRPPKLGQIGRSKRVVIEDD [CN20]
**A:** ~100 nM

**Q:** Provide one value: measured IC50 of KRAPKLGQIGRVKAVDIED [CN19a2v V16D]
**A:** ~1 nM
